- protocol.summary: Pharmacokinetic properties in rats (IV and PO, LC-MS/MS)
- Assay type: in vivo
- test.context: male, Sprague-Dawley (SD), rat, plasma, oral gavage, 5 mg/kg
recorded.endpoint: AUC(0-inf) (ng·h/mL)
Numbers only, in ng·h/mL.

{"compound": "C=CC(=O)N1CCN(c2nc(=O)n(-c3c(C)ccnc3C(C)C)c3nc(-c4c(O)cccc4F)c(F)cc23)[C@@H](C)C1 [AMG510]", "AUC(0-inf) [ng·h/mL]": 584}

[Q] Quote AUC(0-inf) reported for C=C(F)C(=O)N1CCN(c2nc(OC[C@@H]3CCCN3C)nc3c2CCN(c2cccc4cccc(Cl)c24)C3)C[C@@H]1CC#N [MRTX849] please.
[A] 238
